Target: biotinylated labeled human GPC3 protein (produced in-house) (human, UniProt P51654 25-559, limits assumed, biotinylated (Dojindo, Cat. No. LK03); sites not stated)
Assay: ELISA, biotinylated human GPC3 protein
We begin with a simple list: items and their reported OD450 at 0.02 nM.
Give the number; OD450 is assumed, so skip it.

Short answer for hAb001H2L1 (antibody, human IgG1, V domains shown, Humanized F2.169.2; VH H2 + VL L1; expressed as human IgG1) VH: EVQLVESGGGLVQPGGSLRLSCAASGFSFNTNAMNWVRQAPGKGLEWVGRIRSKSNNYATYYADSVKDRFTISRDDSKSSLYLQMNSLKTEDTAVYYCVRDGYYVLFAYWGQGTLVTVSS VL: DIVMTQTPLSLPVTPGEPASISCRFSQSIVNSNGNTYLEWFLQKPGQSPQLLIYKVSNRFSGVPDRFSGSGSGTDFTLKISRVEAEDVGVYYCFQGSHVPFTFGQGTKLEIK : OD450 at 0.02 nM was 0.895

Short answer for hAb007LH3L1b (antibody, human IgG1, V domains shown, Humanized F3.81.19; VH H3 + VL L1b; expressed as human IgG1) VH: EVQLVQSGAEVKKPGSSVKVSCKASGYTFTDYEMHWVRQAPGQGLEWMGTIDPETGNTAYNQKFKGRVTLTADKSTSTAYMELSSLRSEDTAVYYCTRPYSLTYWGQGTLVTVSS VL: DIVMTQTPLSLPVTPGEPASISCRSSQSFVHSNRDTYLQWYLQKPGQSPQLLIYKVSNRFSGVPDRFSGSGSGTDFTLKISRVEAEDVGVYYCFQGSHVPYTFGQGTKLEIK : OD450 at 0.02 nM was 0.225

// provenance: patent US20260116991A1
